Test system: P. falciparum stage V gametocytes
Parameters: BacTiter-Glo ATP luminescence viability of purified stage V gametocytes in 384-well plates, per cent inhibition versus DMSO
Details: 48 h, 5 µM; inhibitor
The whole screen tested about 13,000 compounds, of which about 3,200 (25%) showed an effect of 50% or more. Some of the results follow.
Listing of recorded % Inhibition by entry.
Note: unit % is implicit; provide only the numeric part.

Guide cases for % Inhibition, answers given:
COc1cccc2c1CCN(CCN1CCC(CNC(=O)c3ccc(-c4ccc(C#N)cc4)cc3)CC1)C2; 16.45
Cc1ccc(NC(=O)c2ccc(C(=O)NC3CCN(CC4CCCCC4)CC3)cc2)cc1; -26.65
NC1=NC(Cc2ccccc2)N(c2ccc(Cl)cc2)C(N)=N1 (centres unmarked); 0.2754
Cc1cc(NC(=O)c2ccsc2)ccc1OC1CCN(Cc2ccc(F)cc2)CC1; 4.453
CCCCCCCN(Cc1ccc(OC(C)(C)C(=O)OCC)cc1)C(=O)Nc1ccccc1OCC; 46.34

Let me know recorded % Inhibition for O=C(NC1CCN(Cc2ccccc2)CC1)c1csc2nc(-c3ccc(Cl)cc3)cn12 , thanks.
-8.625

Tell me % Inhibition reported for O=C(NC1CCN(CC2(c3ccc(Cl)cc3)CCC2)CC1)c1cscn1
62.42

Tell me its % Inhibition given O=C(Nc1ccc(Cn2ncc(N3CCCNCC3)c(Cl)c2=O)cc1)Nc1ccc(C(F)(F)F)cc1 as the entry.
-22.6

Look up % Inhibition of Cc1ccc(C2(CN3CCC(NC(=O)c4ccn[nH]4)CC3)CCCCC2)cc1 and report it.
64.93

Determine from records and report % Inhibition for COc1cccc(C(=O)Nc2ccc(S(=O)(=O)c3cc4c(cc3OC)CCN(C)CC4)cc2)c1
79.19

* * *

System: P. falciparum stage V gametocytes
Design: BacTiter-Glo ATP luminescence viability of purified stage V gametocytes in 384-well plates, per cent inhibition versus DMSO
Conditions: 48 h, 5 µM; inhibitor
Hit rate of the full screen: of about 13,000 compounds, about 3,200 (25%) showed an effect of 50% or more. The list shows a part of the results.
Listing of recorded % Inhibition by entry.
Expressed in %, but write only the number.

Cc1cccc2nc(-c3ccc(-c4ccc(CN5CCN(c6cnccn6)CC5)cc4)s3)[nH]c12.O=C(O)C(F)(F)F; 28.24
Cc1cc(CN2CCCN(c3ccc4c(c3)CCN(Cc3ccc(-c5ncc[nH]5)cc3)CC4)CC2)n(C)n1; 22.45
Cc1nc2nc(N)nc(N)c2c(C)c1Cc1cccc(C(N)=O)c1; 17.6
CC(c1cccc(S(=O)(=O)NCc2ccc(Cl)cc2Cl)c1)N1CCC(N2CCCCC2)CC1 (centres unmarked); -22.09

Return the recorded % Inhibition value; entry: COc1ccc(NC(=O)Nc2cccc(-c3ccc(-c4nc5ccc(C(F)(F)F)cc5[nH]4)cc3)c2)cc1
-27.48

Specify % Inhibition for CNc1ccc(CNCc2cccc(-c3ccc(-c4nc5ccccc5[nH]4)cc3)c2)cc1.O=C(O)C(F)(F)F and stop.
13.98

Specify reported % Inhibition for the compound shown: COc1ccc2c(c1)CCCC2C(C)NCC(O)c1cccc(C(F)(F)F)c1 (centres unmarked)
-11.59

In one line, give reported % Inhibition of the entry COc1ccc(-c2nc(NCc3ccccc3)c3cc(OC)c(OC)cc3n2)cc1 .
17.4
